- target.under.test: TJP2_1, Q9UDY2
- Sequence (Q9UDY2 24-128): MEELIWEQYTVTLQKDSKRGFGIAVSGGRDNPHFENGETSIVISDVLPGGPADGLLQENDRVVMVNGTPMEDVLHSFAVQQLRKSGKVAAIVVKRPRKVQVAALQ
- assay.method.text: holdup assay
- Design: key: below the threshold = too weak to quantify, mostly under pKd 3.1 to 4
- run.conditions: plain residues with an end cap or a label only (N-terminal biotin on a linker: ado-ado)
property: pKd

Some binders with recorded pKd:
- binder: "QSARLWETSI [ADAM22, Q9P0K1]"
  pKd: "below the threshold"
- binder: "FNSYSLTGYV [CLDN2, P57739]"
  pKd: 4.84
- binder: "VRNLPESEEL [MYOZ3, Q8TDC0]"
  pKd: "below the threshold"
- binder: "SARSRLSSNL [HCN2, Q9UL51]"
  pKd: "below the threshold"
- binder: "KKMPSIESDV [GRIN2A, Q12879]"
  pKd: "below the threshold"

Qu. I have this binder here, GNSVLKSTQF [SLC22A12, Q96S37] , and I need its recorded pKd.
Ans. below the threshold

Qu. I have this binder here, PEYLGLDVPV [ERBB2, P04626] , and I need its recorded pKd.
Ans. below the threshold

Qu. I have this binder here, SNAGNTATKA [NOSTRIN, Q8IVI9] , and I need its recorded pKd.
Ans. below the threshold
